- measured-target: T1, 4H883-bH
- T1 chain: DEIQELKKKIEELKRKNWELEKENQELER
- procedure-summary: two-hybrid library CCNG1;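 note: natural log of median RNA to DNA barcode read ratio; higher means stronger binding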
Classification by interaction score | ranges: LOW = under -0.3, MID = from -0.3 up to 0.3, HIGH = 0.3 and over

Here's what some known entries look like.
DEIQELKKEIEELERKNWELEKKNQELKR [4H568-bH]
HIGH
DEIQELKKKIEELKRKNWELEKENQELER [4H883-bH]
HIGH
DENQELEKKIEELERKIWELKKKNQELKR [4H1328-bH]
MID
DKIQQLKQEIQELKQEIQELEWENQELEQ [4H2627-bN]
HIGH
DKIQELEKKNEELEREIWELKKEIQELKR [4H2442-bH]
HIGH
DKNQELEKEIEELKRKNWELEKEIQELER [4H3185-bH]
LOW
DKNQELKKKIEELEREIWELEKENQELER [4H3843-bH]
LOW
DKIQELKKEIEELERKNWELEKEIQELKR [4H2610-bH]
HIGH
DENQELEKKIEELKRENWELKKEIQELER [4H1369-bH]
LOW
DKIQELKKENEELEREIWELKKEIQELER [4H2697-bH]
LOW

Task: Input DEIQELKKKIEELERENWELKKKIQELER [4H797-bH] ; output its category
Result: HIGH

Task: Input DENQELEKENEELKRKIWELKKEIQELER [4H1257-bH] ; output its category
Result: MID

Task: Input DKNQELKKKIEELEREIWELKKKNQELER [4H3855-bH] ; output its category
Result: HIGH
